Entries annotated with measured pEC50
Tested on: HBsAg
Assay: HBsAg assay: inhibition of HBsAg in HepG2.2.15 cells (chemiluminescence immunoassay of supernatant)
Format: cell-based, hepatitis B virus
Details: read-out: sAg EC50; HepG2.2.15 cells; HBsAg in supernatant at day 6 after exposure to compound; 0.5% DMSO
// field semantics: pEC50 = negative decimal log of concentration (mol/L)

See these solved cases before continuing.
# molecule, measured-on, value-reported
measured = [
    ("Fc1ccc(C2CC2c2cnc(-c3ncccn3)nc2)cc1N1CCC(F)(F)C1 (single isomer, unassigned) [Example 44]", "HBsAg", 6.96),
    ("COCCOc1cc(F)c(Cl)cc1C1CC1c1cnc(-c2ncccn2)nc1 (single isomer, unassigned) [Example 156]", "HBsAg", 6.72),
    ("CO[C@H]1CCN(c2cc(C3CC3c3cnc(-c4ncccn4)nc3)cc(Cl)c2F)C1 (single isomer, unassigned) [Example 117]", "HBsAg", 7.96),
]

Ask: Kindly indicate its recorded pEC50. Item: COc1c(Cl)ccc(C2CC2c2cnc(-c3ncccn3)nc2)c1C (single isomer, unassigned) [Example 72]
Result: 7.05

---

Test system: HBsAg
Experiment: HBsAg assay: inhibition of HBsAg in HepG2.2.15 cells (chemiluminescence immunoassay of supernatant)
Type: cell-based, hepatitis B virus
Conditions: read-out: sAg EC50; HepG2.2.15 cells; HBsAg in supernatant at day 6 after exposure to compound; 0.5% DMSO
value-kind: log10(EC50) (log10 of the value in nM)
Response schema: value (number) is log10 of EC50 in units of nM.

# molecule, value-reported
measured = [
    ("COc1cc(C2CC2c2cnc(-c3ncccn3)nc2)cc(Cl)c1Cl (single isomer, unassigned) [Example 59]", 1.51),
    ("COc1cc(C2CC2c2cnc(-c3ncccn3)nc2)cc(OC)c1Cl (single isomer, unassigned) [Example 98]", 2.54),
    ("Fc1cc(C2CC2c2cnc(-c3ncccn3)nc2)cc(OC2CCCC2)c1F (single isomer, unassigned) [Example 246]", 2.18),
]

Now take the following molecule into account.
Ask: Please supply the value of reported log10(EC50) for the item COc1cnn(-c2cc(C3CC3c3cnc(-c4ncccn4)nc3)cc(F)c2F)c1 (single isomer, unassigned) [Example 251]
Result: 1.61

---

pEC50 for assorted compounds
Test system: HBsAg
Experiment: HBsAg assay: inhibition of HBsAg in HepG2.2.15 cells (chemiluminescence immunoassay of supernatant)
Format: cell-based, hepatitis B virus
Settings: read-out: sAg EC50; HepG2.2.15 cells; HBsAg in supernatant at day 6 after exposure to compound; 0.5% DMSO
Convention used: pEC50 is expressed as -log10 of the molar concentration.

Study these solved cases before continuing.
# compound, pEC50
rows = [
    ("COc1cc(C2CC2c2cnc(-c3ncccn3)nc2)cc(C)c1Cl (single isomer, unassigned) [Example 58]", 6.54),
    ("Fc1cc(C2CC2c2cnc(-c3ncccn3)nc2)cc(OC2CCCC2)c1F (single isomer, unassigned) [Example 245]", 5.30),
    ("CO[C@@H]1CCN(c2cc(C3CC3c3cnc(-c4ncccn4)nc3)ccc2F)C1 (single isomer, unassigned)", 6.77),
]

Kindly consider the entry below.
Ask: Tell me pEC50 reported for Cc1cc(C2CC2c2cnc(-c3ncccn3)nc2)cc(OCC2CC2)c1Cl (single isomer, unassigned) [Example 50]
Result: 5.70

Data provenance is patent US20230083973A1.
